ASSAYED SYSTEM: Human β2 adrenoceptor (Homo sapiens, UniProt P07550)
Sequence (P07550 whole entry): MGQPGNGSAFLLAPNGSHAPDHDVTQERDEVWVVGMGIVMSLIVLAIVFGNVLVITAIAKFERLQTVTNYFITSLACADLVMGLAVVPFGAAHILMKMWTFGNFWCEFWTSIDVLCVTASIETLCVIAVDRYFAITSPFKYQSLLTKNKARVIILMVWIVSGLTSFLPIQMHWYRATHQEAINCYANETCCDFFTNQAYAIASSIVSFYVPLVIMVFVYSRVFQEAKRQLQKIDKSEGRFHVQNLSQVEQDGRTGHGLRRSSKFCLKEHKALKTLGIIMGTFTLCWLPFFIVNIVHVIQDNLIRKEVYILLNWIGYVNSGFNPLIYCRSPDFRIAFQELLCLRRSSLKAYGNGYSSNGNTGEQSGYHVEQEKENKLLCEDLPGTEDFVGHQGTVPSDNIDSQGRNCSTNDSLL
OBSERVED PROPERTY: IC50

>>> value("COc1c(CNC[C@H](O)c2ccc(O)c3[nH]c(=O)ccc23)ccc(C(=O)N[C@H]2C[C@H](NC(=O)COc3cccc([C@](O)(C(=O)OCC4CCN(Cc5ccccc5)CC4)c4ccccc4)c3)C2)c1F [Compound 139]")
"< 0.3 nM"
>>> value("O=C(NCc1ccc(COc2ccc(C(O)(C(=O)OCC3CCN(Cc4ccccc4)CC3)c3ccccc3)cc2)cc1)c1ccc(CNC[C@H](O)c2ccc(O)c3[nH]c(=O)ccc23)cc1 (stereo partly shown) [Compound 53, diformate]")
"> 3 nM"
>>> value("O=C(c1ccc(CCNC[C@H](O)c2ccc(O)c3[nH]c(=O)ccc23)cc1)N1CCN(C(=O)c2ccc(COc3cccc([C@](O)(C(=O)OCC4CCN(Cc5ccccc5)CC4)c4ccccc4)c3)cc2)CC1 [Compound 118]")
"0.3 to 3 nM"
>>> value("COc1cc(C(=O)NCCCOc2cccc([C@](O)(C(=O)OCC3CCN(Cc4ccccc4)CC3)c3ccccc3)c2)c(Cl)cc1CNC[C@H](O)c1ccc(O)c2[nH]c(=O)ccc12 [Compound 32J]")
"< 0.3 nM"
>>> value("O=C(NCCc1cccc(C(O)(C(=O)OCC2CCN(Cc3ccccc3)CC2)c2ccccc2)c1)c1ccc(CNCC(O)c2ccc(O)c3[nH]c(=O)ccc23)cc1 (stereo in doubt) [Compound 39]")
"< 0.3 nM"
>>> value("O=C(COc1cccc([C@](O)(C(=O)OCC2CCN(Cc3ccccc3)CC2)c2ccccc2)c1)N[C@H]1C[C@H](NC(=O)c2ccc(CNC[C@H](O)c3ccc(O)c4[nH]c(=O)ccc34)nc2)C1 [Compound 145]")
"0.3 to 3 nM"
>>> value("O=C(c1ccc(CNC[C@H](O)c2ccc(O)c3[nH]c(=O)ccc23)cc1)N1C[C@@H]2CCN(C(=O)COc3cccc([C@](O)(C(=O)OCC4CCN(Cc5ccccc5)CC4)c4ccccc4)c3)[C@@H]2C1 [Compound 77]")
"0.3 to 3 nM"
>>> value("O=C(OCC1CCN(Cc2ccccc2)CC1)[C@@](O)(c1ccccc1)c1cccc(OCCCCCCNCC(O)c2ccc(O)c3[nH]c(=O)ccc23)c1 (stereo in doubt) [Compound 27]")
"0.3 to 3 nM"
>>> value("O=C(NCCCOc1cccc([C@](O)(C(=O)OCC2CCN(Cc3ccccc3)CC2)c2ccccc2)c1)c1ccc(CNC[C@H](O)c2ccc(O)c3[nH]c(=O)ccc23)c(OC(F)(F)F)c1 [Compound 32E]")
"0.3 to 3 nM"
>>> value("O=C(COc1cccc([C@](O)(C(=O)OCC2CCN(Cc3ccccc3)CC2)c2ccccc2)c1)N[C@H]1C[C@H](NC(=O)c2ccc(CNC[C@H](O)c3ccc(O)c4[nH]c(=O)ccc34)cc2Br)C1 [Compound 136]")
"< 0.3 nM"
